# credit: ChEMBL document CHEMBL6074666

# tgt: Arginase-2, mitochondrial (Homo sapiens)
# Sequence (P78540 whole entry): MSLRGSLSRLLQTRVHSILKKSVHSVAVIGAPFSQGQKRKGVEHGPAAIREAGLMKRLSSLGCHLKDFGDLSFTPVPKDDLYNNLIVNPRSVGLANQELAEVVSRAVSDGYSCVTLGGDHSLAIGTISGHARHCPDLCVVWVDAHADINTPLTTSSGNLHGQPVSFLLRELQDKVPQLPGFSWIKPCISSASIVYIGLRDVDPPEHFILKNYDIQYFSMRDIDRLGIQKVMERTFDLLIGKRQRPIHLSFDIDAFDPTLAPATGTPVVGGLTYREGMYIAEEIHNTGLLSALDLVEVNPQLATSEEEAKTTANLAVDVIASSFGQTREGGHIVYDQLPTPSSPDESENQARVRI
# protocol: Inhibition of recombinant human Arg2 extracted from Escherichia coli incubated for 30 mins by Ellman's method

{"structure.smiles.string": "NCC[C@@H](CCCB(O)O)[C@H](N)C(=O)O", "comparison.operator": "=", "IC50 [µM]": 0.625}
{"structure.smiles.string": "COC(=O)[C@@H](CCCB(O)O)[C@H](N)C(=O)O", "comparison.operator": ">", "IC50 [µM]": 100}
{"structure.smiles.string": "COC[C@H](CCCB(O)O)[C@H](N)C(=O)O", "comparison.operator": "=", "IC50 [µM]": 6.75}
{"structure.smiles.string": "N[C@H](C(=O)O)[C@H](CF)CCCB(O)O", "comparison.operator": "=", "IC50 [µM]": 1.88}
{"structure.smiles.string": "N=C(N)NC[C@@H](CCCB(O)O)[C@H](N)C(=O)O", "comparison.operator": "=", "IC50 [µM]": 0.534}
{"structure.smiles.string": "NC(=O)[C@@H](CCCB(O)O)[C@H](N)C(=O)O", "comparison.operator": ">", "IC50 [µM]": 100}
{"structure.smiles.string": "COC(=O)[C@H](CCCB(O)O)[C@H](N)C(=O)O", "comparison.operator": "=", "IC50 [µM]": 51.9}
{"structure.smiles.string": "NC(=O)[C@H](CCCB(O)O)[C@H](N)C(=O)O", "comparison.operator": "=", "IC50 [µM]": 41.8}
{"structure.smiles.string": "N[C@H](C(=O)O)[C@@H](CF)CCCB(O)O", "comparison.operator": "=", "IC50 [µM]": 6.08}
{"structure.smiles.string": "NC[C@H](CCCB(O)O)[C@H](N)C(=O)O", "comparison.operator": "=", "IC50 [µM]": 0.224}
{"structure.smiles.string": "CNC[C@@H](CCCB(O)O)[C@H](N)C(=O)O", "comparison.operator": "=", "IC50 [µM]": 1.93}
{"structure.smiles.string": "N[C@H](C(=O)O)[C@H](CCCB(O)O)CN1CCCCC1", "comparison.operator": "=", "IC50 [µM]": 17.4}
{"structure.smiles.string": "COC[C@@H](CCCB(O)O)[C@H](N)C(=O)O", "comparison.operator": "=", "IC50 [µM]": 18.7}
{"structure.smiles.string": "CNC(=O)[C@H](CCCB(O)O)[C@H](N)C(=O)O", "comparison.operator": ">", "IC50 [µM]": 100}
{"structure.smiles.string": "NC(=O)NC[C@@H](CCCB(O)O)[C@H](N)C(=O)O", "comparison.operator": "=", "IC50 [µM]": 5.18}
{"structure.smiles.string": "N[C@H](C(=O)O)[C@@H](N)CCCB(O)O", "comparison.operator": "=", "IC50 [µM]": 96.8}

###

Measured IC50 accompanies every entry in the list below.
# tgt: Arginase-1 (Homo sapiens, UniProt P05089)
# Sequence (P05089 whole entry): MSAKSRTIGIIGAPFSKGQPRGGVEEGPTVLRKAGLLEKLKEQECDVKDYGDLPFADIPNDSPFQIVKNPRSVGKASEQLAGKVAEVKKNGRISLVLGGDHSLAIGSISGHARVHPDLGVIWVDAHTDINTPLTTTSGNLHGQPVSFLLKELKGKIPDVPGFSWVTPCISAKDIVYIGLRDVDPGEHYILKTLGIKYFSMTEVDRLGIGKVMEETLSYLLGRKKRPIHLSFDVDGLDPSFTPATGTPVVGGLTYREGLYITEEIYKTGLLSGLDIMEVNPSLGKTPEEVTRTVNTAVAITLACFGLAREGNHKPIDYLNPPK
# protocol: Inhibition of recombinant human Arg1 extracted from Escherichia coli incubated for 30 mins by Ellman's method

{"structure.smiles.string": "COC(=O)[C@@H](CCCB(O)O)[C@H](N)C(=O)O", "comparison.operator": ">", "IC50 (µM)": 100}
{"structure.smiles.string": "NC(=O)[C@@H](CCCB(O)O)[C@H](N)C(=O)O", "comparison.operator": ">", "IC50 (µM)": 100}
{"structure.smiles.string": "CNC(=O)[C@@H](CCCB(O)O)[C@H](N)C(=O)O", "comparison.operator": ">", "IC50 (µM)": 100}
{"structure.smiles.string": "CC(C)(C)[C@H](N)C(=O)NC[C@H](CCCB(O)O)[C@H](N)C(=O)O", "comparison.operator": "=", "IC50 (µM)": 32}
{"structure.smiles.string": "N[C@H](C(=O)O)[C@@H](N)CCCB(O)O", "comparison.operator": "=", "IC50 (µM)": 74}
{"structure.smiles.string": "C[C@H](N)C(=O)NC[C@@H](CCCB(O)O)[C@H](N)C(=O)O", "comparison.operator": "=", "IC50 (µM)": 157}
{"structure.smiles.string": "CC(C)[C@H](N)C(=O)NC[C@@H](CCCB(O)O)[C@H](N)C(=O)O", "comparison.operator": "=", "IC50 (µM)": 145}
{"structure.smiles.string": "N=C(N)NC[C@@H](CCCB(O)O)[C@H](N)C(=O)O", "comparison.operator": "=", "IC50 (µM)": 0.22}
